Here, each record is paired with measured kinase still bound, per cent of control data.
biological target: MAP2K1 (human); assay: KINOMEscan competition binding; details: compound 10.0 µM

>  <RECORD SMILES>
O=C(Nc1cccc(Nc2ncc(Br)c(NCCc3cnc[nH]3)n2)c1)N1CCCC1

>  <kinase still bound, per cent of control, %>
0.15

$$$$
>  <RECORD SMILES>
COc1cc(N2CCN(C)CC2)ccc1Nc1ncc2c(n1)N(C)c1ccccc1C(=O)N2C

>  <kinase still bound, per cent of control, %>
100

$$$$
>  <RECORD SMILES>
O=c1cc(N2CCOCC2)oc2c(-c3cccc4c3sc3ccccc34)cccc12

>  <kinase still bound, per cent of control, %>
76

$$$$
>  <RECORD SMILES>
CN(C)C/C=C/C(=O)Nc1ccc(C(=O)Nc2cccc(Nc3nccc(-c4cccnc4)n3)c2)cc1

>  <kinase still bound, per cent of control, %>
92

$$$$
>  <RECORD SMILES>
CNC(=O)c1ccc(Nc2cc(Nc3ccccc3S(=O)(=O)C(C)C)c3cc[nH]c3n2)nc1

>  <kinase still bound, per cent of control, %>
3

$$$$
>  <RECORD SMILES>
COCC(=O)NC/C=C/c1ccc2ncnc(Nc3ccc(Oc4ccc(C)nc4)c(C)c3)c2c1

>  <kinase still bound, per cent of control, %>
9.4

$$$$
>  <RECORD SMILES>
C=CC(=O)Nc1ccc(CN(C(=O)Nc2c(Cl)c(OC)cc(OC)c2Cl)c2cc(Nc3ccc(N4CCN(C)CC4)cc3)ncn2)cc1

>  <kinase still bound, per cent of control, %>
100

$$$$
>  <RECORD SMILES>
COc1cc2ncn(-c3cc(OCc4ccccc4C(F)(F)F)c(C(N)=O)s3)c2cc1OC

>  <kinase still bound, per cent of control, %>
67

$$$$
>  <RECORD SMILES>
O=C1NC(=O)/C(=C/c2ccc3nccc(-c4ccncc4)c3c2)S1

>  <kinase still bound, per cent of control, %>
1.8

$$$$
>  <RECORD SMILES>
CCN1CCN(C(=O)Cc2ccc(Nc3ncc(F)c(Nc4ccc(C(=O)Nc5ccccc5Cl)cc4)n3)cc2)CC1

>  <kinase still bound, per cent of control, %>
76

$$$$
>  <RECORD SMILES>
Cc1n[nH]c2ccc(-c3cncc(OC[C@@H](N)Cc4c[nH]c5ccccc45)c3)cc12

>  <kinase still bound, per cent of control, %>
100

$$$$
>  <RECORD SMILES>
COc1cc2ncnc(-n3nc(-c4ccccn4)nc3N)c2cc1OC

>  <kinase still bound, per cent of control, %>
64

$$$$
>  <RECORD SMILES>
C=CC(=O)Nc1cc(-n2c(=O)ccc3cnc4ccc(-c5cn[nH]c5)cc4c32)ccc1C

>  <kinase still bound, per cent of control, %>
69

$$$$
>  <RECORD SMILES>
N#CCNC(=O)c1ccc(-c2ccnc(Nc3ccc(N4CCOCC4)cc3)n2)cc1

>  <kinase still bound, per cent of control, %>
100

$$$$
>  <RECORD SMILES>
CCN(CC)CCCCNc1ncc2cc(-c3cc(OC)cc(OC)c3)c(NC(=O)NC(C)(C)C)nc2n1

>  <kinase still bound, per cent of control, %>
100

$$$$
>  <RECORD SMILES>
NC(=O)Nc1cc(-c2cccc(F)c2)sc1C(=O)N[C@@H]1CCCNC1

>  <kinase still bound, per cent of control, %>
0

$$$$
>  <RECORD SMILES>
C[C@@H](Oc1cc(-c2cnn(C3CCNCC3)c2)cnc1N)c1c(Cl)ccc(F)c1Cl

>  <kinase still bound, per cent of control, %>
64

$$$$
>  <RECORD SMILES>
COc1cc(C(=O)N2CCC(N3CCN(C)CC3)CC2)ccc1Nc1ncc2c(n1)N(C)c1ccccc1C(=O)N2C

>  <kinase still bound, per cent of control, %>
100

$$$$
>  <RECORD SMILES>
COc1ccc(N(C(=O)Oc2c(C)cccc2C)c2ccnc(Nc3ccc(N4CCN(C)CC4)cc3)n2)c(OC)c1

>  <kinase still bound, per cent of control, %>
38

$$$$

The reported measurements were obtained from the kinase profiling compilation of Christmann-Franck et al. (2016).
